# protocol_description: Half life in Wistar rat at 2.5 uM/kg, iv
# Assay type: ADME, organism-based
# setup_conditions: in vivo
reported_endpoint: half-life at […] (min)

>  <smiles_data>
CC(C)Cn1cc(C#N)c2cc(Oc3ccc(NC(=O)[C@@H]4CCCN4)cc3)ccc21

>  <value_observed>
204

$$$$

###

# protocol_description: Volume of distribution at steady state in CD1 mouse at 2.5 uM/kg, po and iv
# Assay type: ADME, organism-based
# setup_conditions: in vivo, read-out: Vdss

>  <smiles_data>
CC(C)Cn1cc(C#N)c2cc(Oc3ccc(NC(=O)[C@@H]4CCCN4)cc3)ccc21

>  <Vd at […] [L/kg]>
3.3

$$$$
